Test system: T2 cells
experiment: Peptide-specific cytotoxicity of peptide-elicited CTL lines against peptide-loaded T2 cells
experimentalContext: T2 cells loaded with the same peptide; 4-hr assay, varying E:T
experimentalEndpoint: peptide-specific lysis by CTL line generated against the peptide

1. KLLLALAGL [MY2] | high specific lysis
2. VLQELNVTV [PR1] | high specific lysis

* * *

testedOn: HLA-A2.1 (Homo sapiens, UniProt P04439, D140Y/D185E/D98H/E176V/E277Q/G131W/G231S/I119V/I121R/I166T/I218V/L300P/L318F/N151K/N90K/P208A/P217A/Q86G/Q94H/R138H/R169H/T345S)
experiment: HLA-A2.1 surface expression on peptide-coated T2 cells by indirect flow cytometry (BB7.2)
Assay type: binding
experimentalContext: compared with T2 cells with no added peptide / positive control influenza peptide
experimentalEndpoint: surface HLA-A2.1 expression on peptide-pulsed T2 cells

1) KLNDVLLIQL [PR7V] | strong peptide binding
2) KLNDILLIQL [PR71] | strong peptide binding
